- Tested on: Runx2
- run_description: Runx2 activity, 6xOSE2-Luc luciferase reporter in transfected C2C12 cells
- Assay type: cell-based, Mouse
- particulars: Mus musculus, 5.0 μM, 24 hrs, read-out: luciferase activity relative to control set as 1
- From the text: Mouse premyoblast cell (C2C12 cell) was transfected using receptor vector 6xOSE2-Luc in order to investigate the activity of the amide compound of the present invention on Runx2. […]
test_readout: fold induction at 5 µM
Keep the answer to the number alone.

Consider the reported fold induction at 5 µM for these compounds:
* COc1ccc(-c2ccc3c(c2)CN(Cc2ccc(C(=O)Nc4ccccc4N)cc2)C3=O)cc1OC | 10.7
* COc1ccc(-c2ccc3c(c2)CN(CCCCCC(=O)NO)C3=O)cc1OC | 2.1

Indicate the recorded fold induction at 5 µM value for this compound: COc1cc2c(c(-c3cc(C)cc(C)c3)c1OC)CN(CCCCCC(=O)Nc1ccccc1N)C2=O
9.2

Indicate the recorded fold induction at 5 µM value for this compound: COc1cc(C(=O)NCc2ccc(C(=O)Nc3ccccc3N)cc2)c(C)c(Br)c1OC
32.3

Indicate the recorded fold induction at 5 µM value for this compound: COc1ccc(-c2c3c(cc(OC)c2OC)C(=O)N(Cc2ccc(C(=O)Nc4ccccc4N)cc2)C3)cc1OC
26.9

Indicate the recorded fold induction at 5 µM value for this compound: O=C(CCCCCN1Cc2cc(-c3cc(F)cc(F)c3)ccc2C1=O)NO
3

Indicate the recorded fold induction at 5 µM value for this compound: Cc1cc(C(=O)NCCCCCC(=O)NO)ccc1-c1ccccc1
3.4

Indicate the recorded fold induction at 5 µM value for this compound: O=C(CCCCCN1Cc2c(cccc2-c2ccc(C(F)(F)F)cc2)C1=O)NO
1.2

###

- System: Runx2
- run_description: Runx2 activity, 6xOSE2-Luc luciferase reporter in transfected C2C12 cells
- Type: cell-based, Mouse
- particulars: Mus musculus, 10 μM, 24 hrs, read-out: luciferase activity relative to control set as 1
test_readout: fold induction at 10 µM

- COc1ccc(-c2cccc3c2CN(Cc2ccc(C(=O)Nc4ccccc4N)cc2)C3=O)cn1: 10.2
- CC(=O)Nc1cccc(-c2cccc3c2CN(Cc2ccc(C(=O)Nc4ccccc4N)cc2)C3=O)c1: 18.1

Indicate the recorded fold induction at 10 µM value for this compound: Cc1cc(C(=O)NCCCCCC(=O)Nc2ccccc2N)ccc1-c1cccnc1
28.1

Indicate the recorded fold induction at 10 µM value for this compound: Nc1ccccc1NC(=O)c1ccc(CN2Cc3c(cccc3-c3ccccc3)C2=O)cc1
15.6

Indicate the recorded fold induction at 10 µM value for this compound: COc1cc(C(=O)NCc2ccc(C(=O)Nc3ccccc3N)cc2)c(C)c(-c2cccc(N)c2)c1OC
24.5

###

- System: Runx2
- run_description: Runx2 activity, 6xOSE2-Luc luciferase reporter in transfected C2C12 cells
- Format: cell-based, Mouse
- particulars: Mus musculus, 5.0 μM, 24 hrs, read-out: luciferase activity relative to control set as 1
Threshold-based label: fold induction at 5 µM under 10 gives met, fold induction at 5 µM not under 10 gives not met.

Here's what some known entries look like.
* COc1ccc(-c2cccc3c2CN(Cc2ccc(C(=O)Nc4ccccc4N)cc2)C3=O)cn1 | met
* COc1ccc(-c2cccc3c2CN(CCCCCC(=O)NO)C3=O)c(OC)c1 | met
* COc1cc2c(c(-c3cc(F)cc(F)c3)c1OC)CN(CCCCCC(=O)Nc1ccccc1N)C2=O | met
* COc1cc2c(c(-c3ccc(C(F)(F)F)cc3)c1OC)CN(CCCCCC(=O)Nc1ccccc1N)C2=O | met
* Cc1c(C(=O)NCCCCCC(=O)Nc2ccccc2N)cccc1-c1ccncc1 | met

Please state whether fold induction at 5 µM is below 10 for O=C(CCCCCN1Cc2cc(-c3cccnc3)ccc2C1=O)NO
met

Please state whether fold induction at 5 µM is below 10 for COc1cc(C(=O)NCc2ccc(C(=O)Nc3ccccc3N)cc2)c(C)c(-c2ccccc2)c1OC
not met

Please state whether fold induction at 5 µM is below 10 for COc1ccc(-c2c3c(cc(OC)c2OC)C(=O)N(Cc2ccc(C(=O)Nc4ccccc4N)cc2)C3)cc1
not met

Please state whether fold induction at 5 µM is below 10 for NC(=O)c1cccc(-c2cccc3c2CN(Cc2ccc(C(=O)Nc4ccccc4N)cc2)C3=O)c1
met

###

- Tested on: Runx2
- run_description: Runx2 activity, 6xOSE2-Luc luciferase reporter in transfected C2C12 cells
- Type: cell-based, Mouse
- particulars: Mus musculus, 10 μM, 24 hrs, read-out: luciferase activity relative to control set as 1
Each record's class is read off its fold induction at 10 µM using these ranges: low range (below 10), mid range (10 to below 20), high range (20 or more)

- Cc1cc(C(=O)NCCCCCC(=O)NO)ccc1-c1ccccc1: low range

// return the class label for Nc1ccccc1NC(=O)c1ccc(CN2Cc3c(cccc3-c3ccc(Oc4ccccc4)cc3)C2=O)cc1
mid range

// return the class label for Nc1ccccc1NC(=O)CCCCCN1Cc2c(cccc2-c2cccnc2)C1=O
high range

// return the class label for Cc1cc(C(=O)NCCCCCC(=O)Nc2ccccc2N)ccc1-c1cncnc1
low range

// return the class label for Nc1ccccc1NC(=O)c1ccc(CN2Cc3cc(-c4ccc5c(c4)OCO5)ccc3C2=O)cc1
low range

// return the class label for Nc1ccccc1NC(=O)c1ccc(CN2Cc3c(cccc3-c3ccc4c(c3)OCO4)C2=O)cc1
mid range

// return the class label for COc1cc(C(=O)NCc2ccc(C(=O)Nc3ccccc3N)cc2)c(C)c(-c2cc(F)cc(F)c2)c1OC
high range

// return the class label for Nc1ccccc1NC(=O)c1ccc(CN2Cc3cc(-c4ccc5ccccc5c4)ccc3C2=O)cc1
low range

// return the class label for COc1cc2c(c(-c3cncnc3)c1OC)CN(Cc1ccc(C(=O)Nc3ccccc3N)cc1)C2=O
high range

// return the class label for COc1cc(C(=O)NCc2ccc(C(=O)Nc3ccccc3N)cc2)c(C)c(-c2ccccc2)c1OC
high range

// return the class label for COc1ccc(-c2c3c(cc(OC)c2OC)C(=O)N(Cc2ccc(C(=O)Nc4ccccc4N)cc2)C3)cc1
mid range

// return the class label for CC(C)(C)c1ccc(-c2cccc3c2CN(Cc2ccc(C(=O)Nc4ccccc4N)cc2)C3=O)cc1
mid range

// return the class label for COc1ccc(-c2ccc(C(=O)NCCCCCC(=O)Nc3ccccc3N)cc2C)c(OC)c1
low range

// return the class label for Cc1c(C(=O)NCCCCCC(=O)Nc2ccccc2N)cccc1-c1cccnc1
low range

// return the class label for COc1ccc(-c2cccc(C(=O)NCCCCCC(=O)NO)c2C)c(OC)c1
low range

// return the class label for Nc1ccc(-c2cccs2)cc1NC(=O)CCCCCN1Cc2c(cccc2-c2cncnc2)C1=O
low range

// return the class label for COc1ccc(-c2ccc3c(c2)CN(CCCCCC(=O)NO)C3=O)cc1OC
mid range

// return the class label for COc1cc2c(c(-c3cccnc3)c1OC)CN(Cc1ccc(C(=O)Nc3ccccc3N)cc1)C2=O
high range

###

- Tested on: Runx2
- run_description: Runx2 activity, 6xOSE2-Luc luciferase reporter in transfected C2C12 cells
- Type: cell-based, Mouse
- particulars: Mus musculus, 20 μM, 24 hrs, read-out: luciferase activity relative to control set as 1
Cut-off 20 on fold induction at 20 µM, inclusive. At or above means Criterion met; below means Criterion not met.

• COc1cc2c(c(-c3cncnc3)c1OC)CN(Cc1ccc(C(=O)Nc3ccccc3N)cc1)C2=O = Criterion met
• CC(=O)Nc1cccc(-c2cccc3c2CN(Cc2ccc(C(=O)Nc4ccccc4N)cc2)C3=O)c1 = Criterion met
• Nc1ccccc1NC(=O)c1ccc(CN2Cc3c(cccc3-c3cccnc3)C2=O)cc1 = Criterion not met
• Nc1cccc(-c2cccc3c2CN(Cc2ccc(C(=O)Nc4ccccc4N)cc2)C3=O)c1 = Criterion not met

In the following, a different compound is considered.
Please indicate if the recorded fold induction at 20 µM for Cc1c(C(=O)NCCCCCC(=O)Nc2ccccc2N)cccc1-c1cccnc1 meets or exceeds 20.
Criterion not met

###

- Tested on: Runx2
- run_description: Runx2 activity, 6xOSE2-Luc luciferase reporter in transfected C2C12 cells
- Assay type: cell-based, Mouse
- particulars: Mus musculus, 5.0 μM, 24 hrs, read-out: luciferase activity relative to control set as 1
Let's look at some compounds and their measured fold induction at 5 µM.

* Nc1ccccc1NC(=O)c1ccc(CN2Cc3c(cccc3-c3ccc4c(c3)OCO4)C2=O)cc1 | 9.9

# return fold induction at 5 µM of Nc1ccccc1NC(=O)c1ccc(CN2Cc3c(cccc3-c3cncnc3)C2=O)cc1 (system: Runx2)
11.6

# return fold induction at 5 µM of Nc1ccccc1NC(=O)c1ccc(CN2Cc3c(cccc3-c3ccccc3)C2=O)cc1 (system: Runx2)
12.3

# return fold induction at 5 µM of Nc1ccccc1NC(=O)c1ccc(CN2Cc3cc(-c4cc(F)cc(F)c4)ccc3C2=O)cc1 (system: Runx2)
5.9

###

- Tested on: Runx2
- run_description: Runx2 activity, 6xOSE2-Luc luciferase reporter in transfected C2C12 cells
- Assay type: cell-based, Mouse
- particulars: Mus musculus, 10 μM, 24 hrs, read-out: luciferase activity relative to control set as 1
test_readout: fold induction at 10 µM
Keep the answer to the number alone.

• COc1ccc(-c2ccc3c(c2)CN(Cc2ccc(C(=O)Nc4ccccc4N)cc2)C3=O)cc1OC = 10.1

# return fold induction at 10 µM of COc1cc2c(c(Br)c1OC)CN(Cc1ccc(C(=O)Nc3ccccc3N)cc1)C2=O (system: Runx2)
19.9

# return fold induction at 10 µM of Nc1cccc(-c2cccc3c2CN(Cc2ccc(C(=O)Nc4ccccc4N)cc2)C3=O)c1 (system: Runx2)
20.2

# return fold induction at 10 µM of COc1cc2c(c(-c3cccnc3)c1OC)CN(CCCCCC(=O)Nc1ccccc1N)C2=O (system: Runx2)
10

# return fold induction at 10 µM of Nc1ccccc1NC(=O)c1ccc(CN2Cc3c(cccc3-c3cncnc3)C2=O)cc1 (system: Runx2)
14.4
